Source listed as patent US20070179086A1.

Target: T1, recombinant human TR-2 with a C-terminal hexahistidine tag (TR-2-His) (human, UniProt O14763 56-207)
T1 construct: also called soluble TR-2-His
Assay: SPR Biacore 2000; antibody captured on anti-human antibody chip, 226 nM TR-2-His injected, 25 C, 1:1 model;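 further: goat anti-human capture surface amine-coupled on CM5 chip, HBS-P running buffer with BSA, responses normalized to captured antibody level, kinetics from global 1:1 fitting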
Here, each record is paired with measured kon data.
The answer is to be given in M⁻¹ s⁻¹; state only the numeric part.

Binder	Value units	kon
anti-TR-2 antibody D (antibody, V domains shown, Human antibody from XenoMouse; also called Ab D) VH: QVQLQESGPGLVKPSQTLSLTCTVSGGSISSGGHYWSWIRQHPGKGLEWIGYIYYSGSAYYNPSLKSRVTISVDTSKNQFSLKLSSVTAADTAVYYCARDDSSGWGFDYWGQGILVTVSS VL: DIQMTQSPSSLSASVGDRVTITCRASQGLRNDLGWFQQKPGKAPKRLIYAASSLQRGVPSRFSGSGSGTEFTLTISSLQPEDFTTYFCLQHNSFPWTFGQGTKVEIK	M⁻¹ s⁻¹	620000

Now examine the next entry.
[ask] Recorded kon of anti-TR-2 antibody J (antibody, V domains shown, also called Ab J) VH: QVQLVESGGGVVQPGRSLRLSCAASGFTFNNYGMHWVRQAPGKGLEWVAVIWYDGSNKYYADSVKGRFTISRDNSKNTLYLQMNSLRAEDTAVYYCARDRTVYSNSSPFYYYYYGMDVWGQGTTVTVSS VL: DIQMTQSPSSLSASVGDRVTITCRTSQSISTYLNWYQQKPGKAPKLLISATSSLQSGVPSRFSGSGSGTDFTLTISSLQPEDFATYYCQQSYSTPLTFGGGTKVEIK , please.
[reply] 570000
